experiment: Inhibition of Wnt3A/beta-catenin signaling-mediated Tcf4 transcriptional activity in human HEK293T cells at dual luciferase reporter gene assay EC50 after 24 hrs by FOPglow reporter gene assay; parameters: scale not given: the % may be the effect or the level left
measurement kind: activity (%)
Only the number, expressed in %, is required.

Hello, please tell me recorded activity for this one: COc1cc(/C=C2\CC/C(=C\c3ccc(O)c(OC)c3)C2=O)ccc1O
90.8

Hello, please tell me recorded activity for this one: COc1ccc(/C=C2\CCC/C(=C\c3ccc(OC)c(O)c3)C2=O)cc1O
93.8

Hello, please tell me recorded activity for this one: COc1ccc(/C=C2\CCC/C(=C\c3ccc(OC)c(OC)c3)C2=O)cc1OC
104
